For each record, write down the corresponding mMC4R Fold Diff.
- tested.on: mMC4R (Mus musculus, UniProt P56450)
- Sequence (P56450 whole entry): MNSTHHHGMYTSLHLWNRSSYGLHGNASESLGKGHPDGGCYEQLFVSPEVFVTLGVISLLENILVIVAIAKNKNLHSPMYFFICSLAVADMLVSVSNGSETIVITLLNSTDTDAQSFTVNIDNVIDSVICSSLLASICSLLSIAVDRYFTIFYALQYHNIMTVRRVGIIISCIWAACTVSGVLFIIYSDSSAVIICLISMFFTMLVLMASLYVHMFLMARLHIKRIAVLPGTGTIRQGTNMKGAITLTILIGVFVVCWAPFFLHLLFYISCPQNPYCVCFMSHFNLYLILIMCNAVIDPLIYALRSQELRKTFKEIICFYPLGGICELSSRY
- test: 125I-NDP-MSH competitive binding assay, transfected HEK293 cells, mMC4R
- study.conditions: binding IC50 versus control 1 (Asn) or 2 (Dap)
Square brackets hold non-standard residues; d marks the D form. Peptide text beside a SMILES is read from it.
One number for each entry.

Can you give me mMC4R Fold Diff for all of these, one by one?
1. CC(C)[C@@H]1NC(=O)[C@H](CC(N)=O)NC(=O)[C@H](Cc2ccccc2)NC(=O)[C@H](Cc2ccccc2)NC(=O)[C@H](CCCNC(=N)N)NC(=O)[C@@H]2CCCN2C(=O)[C@H]2CCCN2C(=O)[C@H](Cc2ccccc2)NC1=O [ZMK 2-82, c[Pro-Arg-Phe-Phe-Asn-Val-Phe-DPro]] (cyclo(PRFFNVF[dP]))
2. C[C@@H]1NC(=O)[C@H](CC(N)=O)NC(=O)[C@H](Cc2ccccc2)NC(=O)[C@H](Cc2ccccc2)NC(=O)[C@H](CS)NC(=O)[C@@H]2CCCN2C(=O)[C@H]2CCCN2C(=O)[C@H](Cc2ccccc2)NC1=O [ZMK 3-18, c[Pro-Cys-Phe-Phe-Asn-Ala-Phe-DPro]] (cyclo(PCFFNAF[dP]))

Response:
1: 2; 2: 90

###

- tested.on: hMC4R (Homo sapiens, UniProt P32245)
- Sequence (P32245 whole entry): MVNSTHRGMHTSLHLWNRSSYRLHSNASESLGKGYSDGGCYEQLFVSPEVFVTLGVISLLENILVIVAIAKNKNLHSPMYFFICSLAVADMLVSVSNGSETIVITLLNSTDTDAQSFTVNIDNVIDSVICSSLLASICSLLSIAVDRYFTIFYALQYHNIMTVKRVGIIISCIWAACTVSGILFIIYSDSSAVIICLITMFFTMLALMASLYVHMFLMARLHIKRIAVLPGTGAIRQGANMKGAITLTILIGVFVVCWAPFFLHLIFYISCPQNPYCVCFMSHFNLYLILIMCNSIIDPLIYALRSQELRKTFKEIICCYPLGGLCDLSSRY
- test: cAMP AlphaScreen bioassay, HEK293 cells stably expressing hMC4R
- Type: cell-based
- Set-up: expressed in transfected cells
- study.conditions: hMC4R, cAMP
Square brackets hold non-standard residues; d marks the D form. Peptide text beside a SMILES is read from it. Dap = NC[C@H](N)C(=O)O
property.label: Observed Inverse Agonism?

molecule: CC(C)[C@@H]1NC(=O)[C@H](CN)NC(=O)[C@H](Cc2ccccc2)NC(=O)[C@H](Cc2ccccc2)NC(=O)[C@H](CCCNC(=N)N)NC(=O)[C@@H]2CCCN2C(=O)[C@H]2CCCN2C(=O)[C@H](Cc2ccccc2)NC1=O [ZMK 2-85, c[Pro-Arg-Phe-Phe-Dap-Val-Phe-DPro]]
observed.value: Yes
//
molecule: C[C@@H]1NC(=O)[C@H](CC(N)=O)NC(=O)[C@H](Cc2ccccc2)NC(=O)[C@H](Cc2ccc(O)cc2)NC(=O)[C@H](CCCNC(=N)N)NC(=O)[C@@H]2CCCN2C(=O)[C@H]2CCCN2C(=O)[C@H](Cc2ccccc2)NC1=O [ZMK 2-110, c[Pro-Arg-Tyr-Phe-Asn-Ala-Phe-DPro]] (cyclo(PRYFNAF[dP]))
observed.value: Yes
//
molecule: C[C@@H]1NC(=O)[C@H](CN)NC(=O)[C@H](Cc2ccccc2)NC(=O)[C@H](Cc2ccc(O)cc2)NC(=O)[C@H](CCCNC(=N)N)NC(=O)[C@@H]2CCCN2C(=O)[C@H]2CCCN2C(=O)[C@H](Cc2ccccc2)NC1=O [ZMK 2-112, c[Pro-Arg-Tyr-Phe-Dap-Ala-Phe-DPro]] (cyclo(PRYF[Dap]AF[dP]))
observed.value: Yes

###

I'd appreciate it if you could supply mMC1R Fold Diff values for the items below.
- tested.on: mMC1R (Mus musculus)
- Sequence (Q01727 whole entry): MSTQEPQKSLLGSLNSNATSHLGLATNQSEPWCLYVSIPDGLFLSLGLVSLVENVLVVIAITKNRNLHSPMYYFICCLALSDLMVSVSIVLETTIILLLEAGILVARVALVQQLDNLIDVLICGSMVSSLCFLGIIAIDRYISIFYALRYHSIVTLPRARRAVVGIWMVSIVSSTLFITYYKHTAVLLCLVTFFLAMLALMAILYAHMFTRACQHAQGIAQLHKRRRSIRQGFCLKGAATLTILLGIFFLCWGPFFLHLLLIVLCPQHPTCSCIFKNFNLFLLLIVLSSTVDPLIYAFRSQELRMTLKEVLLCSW
- test: 125I-NDP-MSH competitive binding assay, transfected HEK293 cells, mMC1R
- study.conditions: binding IC50 versus control 1 (Asn) or 2 (Dap)
Square brackets hold non-standard residues; d marks the D form. Peptide text beside a SMILES is read from it. Dap = NC[C@H](N)C(=O)O
Numbers only.

Worked cases, mMC1R Fold Diff given:
compound: CC(C)[C@@H]1NC(=O)[C@H](CC(N)=O)NC(=O)[C@H](Cc2ccccc2)NC(=O)[C@H](Cc2ccccc2)NC(=O)[C@H](CCCNC(=N)N)NC(=O)[C@@H]2CCCN2C(=O)[C@H]2CCCN2C(=O)[C@H](Cc2ccccc2)NC1=O [ZMK 2-82, c[Pro-Arg-Phe-Phe-Asn-Val-Phe-DPro]] (cyclo(PRFFNVF[dP]))
tested.on: mMC1R (Mus musculus)
observed.value: 2

compound: C[C@@H]1NC(=O)[C@H](CN)NC(=O)[C@H](Cc2ccccc2)NC(=O)[C@H](Cc2ccccc2)NC(=O)[C@H](CS)NC(=O)[C@@H]2CCCN2C(=O)[C@H]2CCCN2C(=O)[C@H](Cc2ccccc2)NC1=O [ZMK 3-20, c[Pro-Cys-Phe-Phe-Dap-Ala-Phe-DPro]] (cyclo(PCFF[Dap]AF[dP]))
tested.on: mMC1R (Mus musculus)
observed.value: 6

compound: C[C@@H]1NC(=O)[C@H](CC(N)=O)NC(=O)[C@H](Cc2ccccc2)NC(=O)[C@H](Cc2ccccc2)NC(=O)[C@H](CS)NC(=O)[C@@H]2CCCN2C(=O)[C@H]2CCCN2C(=O)[C@H](Cc2ccccc2)NC1=O [ZMK 3-18, c[Pro-Cys-Phe-Phe-Asn-Ala-Phe-DPro]] (cyclo(PCFFNAF[dP]))
tested.on: mMC1R (Mus musculus)
observed.value: 3

compound: C[C@@H]1NC(=O)[C@H](CN)NC(=O)[C@H](Cc2ccccc2)NC(=O)[C@H](Cc2ccccc2)NC(=O)[C@H](Cc2c[nH]cn2)NC(=O)[C@@H]2CCCN2C(=O)[C@H]2CCCN2C(=O)[C@H](Cc2ccccc2)NC1=O [ZMK 2-99, c[Pro-His-Phe-Phe-Dap-Ala-Phe-DPro]] (cyclo(PHFF[Dap]AF[dP]))
tested.on: mMC1R (Mus musculus)
observed.value: 5

Kindly review the next compound as well.
Request: Entry C[C@@H]1NC(=O)[C@H](CN)NC(=O)[C@H](Cc2ccccc2)NC(=O)[C@H](Cc2ccc(O)cc2)NC(=O)[C@H](CCCNC(=N)N)NC(=O)[C@@H]2CCCN2C(=O)[C@H]2CCCN2C(=O)[C@H](Cc2ccccc2)NC1=O [ZMK 2-112, c[Pro-Arg-Tyr-Phe-Dap-Ala-Phe-DPro]] (cyclo(PRYF[Dap]AF[dP])) has what mMC1R Fold Diff?
Response: 4
